- Experimental system: UniProtKB P00533
- Sequence (P00533 whole entry): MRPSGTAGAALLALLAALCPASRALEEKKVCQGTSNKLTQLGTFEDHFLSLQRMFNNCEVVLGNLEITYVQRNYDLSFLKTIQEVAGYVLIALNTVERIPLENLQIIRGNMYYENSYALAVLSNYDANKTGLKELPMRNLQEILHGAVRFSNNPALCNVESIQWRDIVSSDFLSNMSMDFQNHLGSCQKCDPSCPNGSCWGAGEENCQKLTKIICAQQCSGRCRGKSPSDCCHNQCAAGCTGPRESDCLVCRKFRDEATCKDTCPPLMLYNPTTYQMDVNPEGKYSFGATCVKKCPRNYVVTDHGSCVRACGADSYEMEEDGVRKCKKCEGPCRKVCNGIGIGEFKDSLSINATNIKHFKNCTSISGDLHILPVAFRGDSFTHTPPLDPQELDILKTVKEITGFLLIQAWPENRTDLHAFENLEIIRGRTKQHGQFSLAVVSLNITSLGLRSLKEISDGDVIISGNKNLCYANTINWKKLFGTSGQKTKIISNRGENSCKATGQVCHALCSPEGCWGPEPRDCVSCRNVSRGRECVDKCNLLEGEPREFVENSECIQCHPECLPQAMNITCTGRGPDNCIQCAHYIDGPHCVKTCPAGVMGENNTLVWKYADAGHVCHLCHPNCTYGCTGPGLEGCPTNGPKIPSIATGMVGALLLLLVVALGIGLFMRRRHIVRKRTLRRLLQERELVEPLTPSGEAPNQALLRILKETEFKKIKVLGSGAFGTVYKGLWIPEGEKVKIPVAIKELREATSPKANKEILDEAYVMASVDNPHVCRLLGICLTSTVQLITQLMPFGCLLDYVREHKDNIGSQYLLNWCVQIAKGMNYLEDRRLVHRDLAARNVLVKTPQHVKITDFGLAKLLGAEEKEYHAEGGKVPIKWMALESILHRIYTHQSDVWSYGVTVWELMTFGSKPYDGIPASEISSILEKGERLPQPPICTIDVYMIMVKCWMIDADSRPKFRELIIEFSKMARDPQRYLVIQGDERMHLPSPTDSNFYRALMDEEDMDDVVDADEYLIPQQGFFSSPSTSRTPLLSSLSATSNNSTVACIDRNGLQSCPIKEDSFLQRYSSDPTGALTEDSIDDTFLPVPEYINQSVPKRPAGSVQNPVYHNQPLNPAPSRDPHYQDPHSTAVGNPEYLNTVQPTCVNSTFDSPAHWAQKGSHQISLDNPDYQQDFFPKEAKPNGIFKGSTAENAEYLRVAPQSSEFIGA
- Run description: Inhibitory concentration against EGF receptor by autophosphorylation
Label Yes when IC50 is strictly below 2 µM; otherwise label No.

(Q) hey, is IC50 for N#C/C(=C\c1cc(O)c(O)c(CSCc2ccccc2)c1)C(N)=O lower than 2 µM or not?
(A) Yes

(Q) Please check: IC50 for COc1cc(/C=C(\C#N)C(N)=O)cc(CSc2ccccc2NC(C)=O)c1O , strictly under 2 µM or not?
(A) No

(Q) Quick check: does COc1cc(/C=C(\C#N)C(N)=O)cc(CSc2ccccn2)c1O have IC50 under 2 µM?
(A) No

(Q) Please indicate whether the reported IC50 of COc1cc(/C=C(\C#N)C(N)=O)cc(CSc2ccc(O)cc2)c1O is strictly below 2 µM.
(A) No

(Q) Please check: IC50 for COc1cc(/C=C(\C#N)C(N)=O)cc(CSCc2ccc(Cl)cc2)c1O , strictly under 2 µM or not?
(A) No

(Q) Determine if COc1cc(/C=C(\C#N)C(N)=O)cc(CSCc2ccccc2Cl)c1O shows IC50 strictly lower than 2 µM.
(A) Yes

(Q) Record COc1cc(/C=C(\C#N)C(N)=O)cc(CSc2ccccc2C(=O)O)c1O : is its IC50 strictly below 2 µM?
(A) Yes

(Q) Dear colleague, could you confirm whether IC50 of COc1cc(/C=C(\C#N)C(N)=O)cc(CSc2ccccc2)c1O falls below 2 µM? Thanks.
(A) Yes

(Q) Determine if Cc1cc(C=C(C#N)C#N)cc(O)c1O shows IC50 strictly lower than 2 µM.
(A) No

(Q) Strictly below 2 µM: is that where IC50 of COc1cc(C=C(C#N)C#N)cc(CSc2ccccc2C(=O)O)c1O sits?
(A) No

(Q) Regarding COc1cc(/C=C(\C#N)C(N)=O)cc(CSc2nc3ccccc3[nH]2)c1O , kindly confirm whether its IC50 is beneath 2 µM.
(A) No
